Test system: swine adipose tissue
Method: Inhibition of lipogenesis (incorporation of 14C-glucose into lipid) in swine adipose tissue slices
Type: cell-based
Run parameters: Sus scrofa, 100 micrograms per milliliter, 37° C., 2 hours, glucose-U-14C, insulin, 5% DMSO, triplicate, read-out: Percent Inhibition of lipogenesis compared to control
Value type: inhibition at 100 µg/mL (%)
Reply numerically in %, unit not repeated.

Query: Item `COc1ccc(-c2ccc3oc(C(=O)O)cc3c2)cc1` with swine adipose tissue - inhibition at 100 µg/mL?
Reply: 56

Query: Also, `CC(=O)c1ccc(-c2ccc3oc(C(=O)O)cc3c2)cc1` please.
Reply: 41

Query: Also, `O=C(c1ccccc1)c1ccc2oc(C(=O)O)cc2c1` please.
Reply: 44

Query: Also, `COc1cccc2cc(C(=O)O)oc12` please.
Reply: 22

Query: Also, `O=C(O)c1cc2cc(-c3ccccc3)ccc2o1` please.
Reply: 49

Query: Also, O=C(O)C1Cc2cc(-c3ccc(Cl)cc3)ccc2O1 (stereo not drawn) please.
Reply: 56

Query: Also, O=C(O)C1Cc2ccc(Oc3ccccc3)cc2O1 (stereo not drawn) please.
Reply: 62

Query: Also, `O=C(O)c1cc2cc(Cc3ccccc3)ccc2o1` please.
Reply: 87

Query: Also, O=C(O)C1Cc2c(Oc3ccccc3)cccc2O1 (stereo not drawn) please.
Reply: 27

Query: Also, `O=C(O)c1cc2cc(-c3ccc(O)cc3)ccc2o1` please.
Reply: 30

Query: Also, `COc1ccc2cc(C(=O)O)oc2c1OC` please.
Reply: 24

Query: Also, O=C(O)C1Cc2cc(Cc3ccccc3)ccc2O1 (stereo not drawn) please.
Reply: 40

Query: Also, O=C(O)C1Cc2cc(C3CCCCC3)ccc2O1 (stereo not drawn) please.
Reply: 72

Query: Also, O=C(O)C1Cc2cc(-c3ccccc3)ccc2O1 (stereo not drawn) please.
Reply: 50

Query: Also, `O=C(O)c1cc2ccc(Oc3ccccc3)cc2o1` please.
Reply: 86

Query: Also, CCC(C)c1ccc2oc(C(=O)O)cc2c1 (stereo not drawn) please.
Reply: 64

Query: Also, `CCCCCCOc1ccc2oc(C(=O)O)cc2c1` please.
Reply: 78

Query: Also, `CC(=O)Oc1ccc(-c2ccc3oc(C(=O)O)cc3c2)cc1` please.
Reply: 80

Query: Also, CCC(C)c1ccc2c(c1)CC(C(=O)O)O2 (stereo not drawn) please.
Reply: 35

Query: Also, CCCCCCOc1ccc2c(c1)CC(C(=O)O)O2 (stereo not drawn) please.
Reply: 49

Query: Also, `O=C(O)c1cc2cc(C3CCCCC3)ccc2o1` please.
Reply: 91

Query: Also, `O=C(O)c1cc2cc(-c3ccc(Cl)cc3)ccc2o1` please.
Reply: 55

Query: Also, `O=C(O)c1cc2c(Oc3ccccc3)cccc2o1` please.
Reply: 83

Query: Also, `O=C(O)c1cc2cccc(Cl)c2o1` please.
Reply: 59
